- Assay explanation: Pharmacokinetics of ZA in pig serum after IV or SC infusion with or without rHuPH20 (LC-MS-MS, non-compartmental analysis)
- Assay type: in vivo
- Test conditions: female, Yorkshire, pig, serum, sc, […], pig; SC ZA […], no rHuPH20 (Study Group 2); n=4; read-out: Tmax, median
Measure: Tmax (min)
Expressed in min, but write only the number.

# input Give the value of Tmax reported for the following: O=P(O)(O)C(O)(Cn1ccnc1)P(=O)(O)O [ZA]
# output 10.2

###

- Assay explanation: Phase 1 Stage 1 clinical pharmacokinetics of SC ZA co-administered with rHuPH20
- Assay type: in vivo, human
- Test conditions: human, serum, sc, serum; ZA 1 mg SC infusion + 24000 Units rHuPH20; 4 h post infusion; n=3; read-out: Median Conc.
Measure: concentration at 4 h (ng/mL)
The answer is to be given in ng/mL; state only the numeric part.

# input Supply recorded concentration at 4 h for O=P(O)(O)C(O)(Cn1ccnc1)P(=O)(O)O [ZA] here.
# output 10.2

###

- Assay explanation: Phase 1 Stage 1 clinical pharmacokinetics of SC ZA co-administered with rHuPH20
- Format: in vivo, human
- Test conditions: human, serum, sc, 0.082 mg/kg, Subj 63; ZA 0.0820 mg/kg SC; inf […]; PH20 6000 U
Measure: Cmax (µg/mL)
Note: unit µg/mL is implicit; provide only the numeric part.

# input Give Cmax for the following molecule: O=P(O)(O)C(O)(Cn1ccnc1)P(=O)(O)O
# output 0.167

###

- Assay explanation: Pharmacokinetics of ZA in pig serum after IV or SC infusion with or without rHuPH20 (LC-MS-MS, non-compartmental analysis)
- Format: in vivo
- Test conditions: female, Yorkshire, pig, serum, intravenous, […], animal ID 61, Study Group 1, IV 20 min infusion, ZA […], rHuPH20 0 U/mL, time 2 h; read-out: Zoledronic Acid Serum Concentration
Measure: concentration at 2 h (ng/mL)
State just the number; it will be interpreted in ng/mL.

# input Give the reported value of concentration at 2 h for this record: O=P(O)(O)C(O)(Cn1ccnc1)P(=O)(O)O [ZA]
# output 18.8

###

- Assay explanation: Pharmacokinetics of ZA in pig serum after IV or SC infusion with or without rHuPH20 (LC-MS-MS, non-compartmental analysis)
- Type: in vivo
- Test conditions: female, Yorkshire, pig, serum, subcutaneous, […], pig 68, Study Group 3, SC, ZA […], rHuPH20 10000 U/mL, 10 mL over 1.6 min, time 0.333 h; read-out: Zoledronic Acid Serum Concentration
Measure: concentration at 0.333 h
Value and unit, in that order.

# input Look up concentration at 0.333 h of O=P(O)(O)C(O)(Cn1ccnc1)P(=O)(O)O and report it.
# output 201 ng/mL

###

- Assay explanation: Pharmacokinetics of ZA in pig serum after IV or SC infusion with or without rHuPH20 (LC-MS-MS, non-compartmental analysis)
- Format: in vivo
- Test conditions: female, Yorkshire, pig, serum, subcutaneous, […], Time 6 h; pig ID 70; Study Group 2; SC; ZA […]; 10 mL, 1.6 min; rHuPH20 0 U/mL; read-out: Zoledronic Acid Serum Concentration
Measure: concentration at 6 h

# input Using the record for O=P(O)(O)C(O)(Cn1ccnc1)P(=O)(O)O , state its measured concentration at 6 h.
# output 4.09 ng/mL

###

- Assay explanation: Phase 1 Stage 1 clinical pharmacokinetics of SC ZA co-administered with rHuPH20
- Format: in vivo, human
- Test conditions: human, serum, sc, serum; ZA 2 mg SC infusion + 24000 Units rHuPH20; 0 h post infusion; individual subjects; read-out: Zoledronic Acid Concentration
Measure: concentration at 0 h (ng/mL)
Reply with just the number (in ng/mL).

# input Given O=P(O)(O)C(O)(Cn1ccnc1)P(=O)(O)O [ZA] , respond with its concentration at 0 h.
# output 33.3

###

- Assay explanation: Pharmacokinetics of ZA in pig serum after IV or SC infusion with or without rHuPH20 (LC-MS-MS, non-compartmental analysis)
- Format: in vivo
- Test conditions: female, Yorkshire, pig, serum, intravenous, […], animal ID 57, Study Group 1, IV 20 min infusion, ZA […], rHuPH20 0 U/mL, time 0.50 h; read-out: Zoledronic Acid Serum Concentration
Measure: concentration at 0.5 h (ng/mL)
Reply with just the number (in ng/mL).

# input Identify the reported concentration at 0.5 h for the following entry. O=P(O)(O)C(O)(Cn1ccnc1)P(=O)(O)O
# output 244

###

- Assay explanation: Phase 1 Stage 1 clinical pharmacokinetics of SC ZA co-administered with rHuPH20
- Type: in vivo, human
- Test conditions: human, serum, sc, serum; ZA 0.5 mg SC infusion + 24000 Units rHuPH20; 4 h post infusion; n=3; read-out: Median Conc.
Measure: concentration at 4 h (ng/mL)
State just the number; it will be interpreted in ng/mL.

# input Dear colleague, please send me the reported concentration at 4 h for O=P(O)(O)C(O)(Cn1ccnc1)P(=O)(O)O when you can.
# output 5.87

###

- Assay explanation: Phase 1 Stage 1 clinical pharmacokinetics of SC ZA co-administered with rHuPH20
- Assay type: in vivo, human
- Test conditions: human, serum, sc, ZA 5 mg SC + 24000 U rHuPH20; individual subjects; read-out: Tmax
- Procedure: A pharmacokinetic study of zoledronic acid (ZA) co-administered with rHuPH20 in human subjects was conducted. […] Serum concentration of ZA was determined using a qualified LC-MS-MS assay after derivatization with diazomethane (Zhu, L S et al. (2006) Rapid Commun. […] The assay range was from 2.0 to 400 ng/mL with a lower limit of quantitation (LLOQ) at 2.0 ng/mL. […] Summary statistics (mean, standard deviation, and median) were calculated using JMP or Microsoft Excel.
Measure: Tmax (min)
Response body: numeric value in min, unit text excluded.

# input Note down Tmax recorded for O=P(O)(O)C(O)(Cn1ccnc1)P(=O)(O)O
# output 48.6

###

- Assay explanation: Phase 1 Stage 1 clinical pharmacokinetics of SC ZA co-administered with rHuPH20
- Format: in vivo, human
- Test conditions: human, serum, sc, 0.082 mg/kg, AUC (0-48 h), Subj 63; ZA 0.0820 mg/kg SC; inf […]; PH20 6000 U
Measure: AUC(0-t)
Give your result as the value with the unit written after it.

# input Output measured AUC(0-t) for this item: O=P(O)(O)C(O)(Cn1ccnc1)P(=O)(O)O
# output 613 ng·h/mL

###

- Assay explanation: Phase 1 Stage 1 clinical pharmacokinetics of SC ZA co-administered with rHuPH20
- Type: in vivo, human
- Test conditions: human, serum, sc, 1 mg, ZA 1 mg; SC […] infusion, 100 mL, 3 mL/min, 24000 Units rHuPH20; extrapolated to ∞; individual subjects; read-out: SC MRT
Measure: MRT (h)
Give the value in h but do not write h after it.

# input Answer with the recorded MRT for the compound listed here: O=P(O)(O)C(O)(Cn1ccnc1)P(=O)(O)O
# output 6.93

###

- Assay explanation: Pharmacokinetics of ZA in pig serum after IV or SC infusion with or without rHuPH20 (LC-MS-MS, non-compartmental analysis)
- Format: in vivo
- Test conditions: female, Yorkshire, pig, serum, iv, […], pig; ZA […] 20-min IV infusion; n=3; read-out: Vss, mean
Measure: Vd (L/kg)
Field format: number, assumed L/kg, no unit text.

# input Dear colleague, please send me the reported Vd for O=P(O)(O)C(O)(Cn1ccnc1)P(=O)(O)O when you can.
# output 0.123

###

- Assay explanation: Phase 1 Stage 1 clinical pharmacokinetics of SC ZA co-administered with rHuPH20
- Format: in vivo, human
- Test conditions: human, serum, sc, serum; ZA 1 mg SC infusion + 24000 Units rHuPH20; 10 min post infusion; n=3; read-out: Median Conc.
Measure: concentration at 10 min (ng/mL)
Expressed in ng/mL, but write only the number.

# input # return recorded concentration at 10 min for input O=P(O)(O)C(O)(Cn1ccnc1)P(=O)(O)O
# output 25

###

- Assay explanation: Phase 1 Stage 1 clinical pharmacokinetics of SC ZA co-administered with rHuPH20
- Type: in vivo, human
- Test conditions: human, serum, sc, […], Subj 11; ZA […] SC; inf 0.554 hr; PH20 23928 U
Measure: Cmax

# input Check the records and state Cmax for O=P(O)(O)C(O)(Cn1ccnc1)P(=O)(O)O
# output 6.84 ng/mL

###

- Assay explanation: Pharmacokinetics of ZA in pig serum after IV or SC infusion with or without rHuPH20 (LC-MS-MS, non-compartmental analysis)
- Assay type: in vivo
- Test conditions: female, Yorkshire, pig, serum, subcutaneous, […], Time 0.333 h; pig ID 62; Study Group 2; SC; ZA […]; 50 mL, 8 min; rHuPH20 0 U/mL; read-out: Zoledronic Acid Serum Concentration
Measure: concentration at 0.333 h (ng/mL)
Numeric only. Scale: ng/mL

# input Provide only the value of recorded concentration at 0.333 h for O=P(O)(O)C(O)(Cn1ccnc1)P(=O)(O)O
# output 208
